// data source = patent US20240101572A1

study_target: full-length human PLD2 (Homo sapiens (Human), UniProt O14939)
Sequence (O14939 whole entry): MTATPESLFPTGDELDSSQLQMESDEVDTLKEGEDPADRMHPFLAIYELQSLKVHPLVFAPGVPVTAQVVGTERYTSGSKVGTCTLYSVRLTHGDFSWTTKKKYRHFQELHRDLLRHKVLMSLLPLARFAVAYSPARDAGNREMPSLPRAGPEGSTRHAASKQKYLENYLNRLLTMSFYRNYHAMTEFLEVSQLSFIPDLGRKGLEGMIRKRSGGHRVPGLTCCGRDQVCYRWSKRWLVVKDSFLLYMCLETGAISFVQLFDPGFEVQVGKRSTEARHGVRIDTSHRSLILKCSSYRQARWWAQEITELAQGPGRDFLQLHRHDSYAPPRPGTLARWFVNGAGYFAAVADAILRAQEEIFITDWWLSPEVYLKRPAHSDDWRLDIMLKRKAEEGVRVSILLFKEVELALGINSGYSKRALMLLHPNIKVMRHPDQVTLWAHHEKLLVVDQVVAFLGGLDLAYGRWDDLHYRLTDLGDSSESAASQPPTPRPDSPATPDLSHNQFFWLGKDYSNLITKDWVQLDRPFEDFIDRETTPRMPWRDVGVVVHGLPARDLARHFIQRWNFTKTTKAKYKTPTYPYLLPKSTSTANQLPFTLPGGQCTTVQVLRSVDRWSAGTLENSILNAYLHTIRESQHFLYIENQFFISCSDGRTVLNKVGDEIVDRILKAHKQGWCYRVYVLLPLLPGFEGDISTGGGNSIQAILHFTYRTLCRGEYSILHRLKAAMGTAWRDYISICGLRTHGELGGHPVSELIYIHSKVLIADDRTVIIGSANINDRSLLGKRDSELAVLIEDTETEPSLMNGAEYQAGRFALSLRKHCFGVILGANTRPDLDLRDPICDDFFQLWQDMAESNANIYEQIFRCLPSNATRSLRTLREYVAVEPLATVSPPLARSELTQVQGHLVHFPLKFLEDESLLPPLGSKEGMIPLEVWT
method_notes: Evaluation of human PLD2 enzyme inhibitory activity (Amplex Red / choline oxidase fluorescence)
Format: biochemical
condition_summary: full-length human PLD2 enzyme; read-out: PLD2 IC50
property_label: IC50

[in] Find the measured IC50 of CNC(=O)C(=O)N[C@@H](C)C[C@H]1CC[C@]2(CC1)OC(=O)NN=C2c1cnc(N2CC(C)C2)cc1C and report it.
[out] < 10 nM

[in] Find the measured IC50 of C[C@@H](C[C@H]1CC[C@]2(CC1)OC(=O)NN=C2c1ccc(F)cc1Br)NC(=O)C1(O)COC1 and report it.
[out] 502 nM

[in] Find the measured IC50 of CNC(=O)C(=O)N[C@@H](C)C[C@H]1CC[C@]2(CC1)OC(=O)NN=C2c1cccc(C)c1C and report it.
[out] < 10 nM

[in] Find the measured IC50 of CNC(=O)C(=O)N[C@@H](C)C[C@H]1CC[C@]2(CC1)OC(=O)NN=C2c1cnc(N2CC(C(F)F)C2)cc1C and report it.
[out] < 10 nM

[in] Find the measured IC50 of CNC(=O)C(=O)N[C@@H](C)CN1CCC2(CC1)OC(=O)NN=C2c1cc(C(=O)N(C)C)ccc1Br and report it.
[out] 11 nM

[in] Find the measured IC50 of Cc1cc(C(=O)N[C@@H](C)CN2CCC3(CC2)OC(=O)NN=C3c2cc(C#N)ccc2Br)[nH]n1 [Example 312] and report it.
[out] < 10 nM

[in] Find the measured IC50 of Cc1cc(C(=O)N[C@@H](C)CN2CCC3(CC2)OC(=O)NN=C3c2ccc(C#N)cc2C(F)(F)F)[nH]n1 and report it.
[out] 38 nM

[in] Find the measured IC50 of COc1cc(C(=O)N[C@@H](C)C[C@H]2CC[C@]3(CC2)OC(=O)NN=C3c2ccc(F)cc2Br)on1 and report it.
[out] < 10 nM

[in] Find the measured IC50 of C[C@@H](CN1CCC2(CC1)OC(=O)NN=C2c1ccc(C#N)cc1Br)NC(=O)C(=O)NC1CC1 and report it.
[out] 11 nM

[in] Find the measured IC50 of Cc1cc(C(=O)N[C@@H](C)C[C@H]2CC[C@]3(CC2)OC(=O)NN=C3c2ccc(F)cc2Cl)[nH]n1 and report it.
[out] 23 nM

[in] Find the measured IC50 of Cc1cc(F)ccc1C1=NNC(=O)O[C@]12CC[C@@H](C[C@H](C)NC(=O)N1CCc3ccccc3C1)CC2 and report it.
[out] < 10 nM

[in] Find the measured IC50 of [2H]C([2H])([2H])NC(=O)C(=O)N[C@@H](C)CN1CCC2(CC1)OC(=O)NN=C2c1cc(C#N)c(F)cc1Br and report it.
[out] < 10 nM

[in] Find the measured IC50 of Cc1cc(C(=O)NC(C)CN2CCC3(CC2)OC(=O)NN=C3c2cccc(F)c2Br)[nH]n1 (centres unmarked) and report it.
[out] < 10 nM

[in] Find the measured IC50 of CNC(=O)C(=O)N[C@@H](C)C[C@H]1CC[C@]2(CC1)OC(=O)NN=C2c1ccc(F)cc1I and report it.
[out] < 10 nM

[in] Find the measured IC50 of C[C@@H](C[C@H]1CC[C@]2(CC1)OC(=O)NN=C2c1ccc(C#N)cc1Br)NC(=O)N1CCn2nccc2C1 and report it.
[out] < 10 nM

[in] Find the measured IC50 of Cc1cc(C(=O)N[C@@H](C)C[C@H]2CC[C@]3(CC2)OC(=O)NN=C3c2cc(OC(F)(F)F)ccc2Br)[nH]n1 and report it.
[out] < 10 nM

[in] Find the measured IC50 of C[C@@H](C[C@H]1CC[C@]2(CC1)OC(=O)NN=C2c1cc(C#N)ccc1Br)NC(=O)C(=O)NC1CC1 and report it.
[out] < 10 nM

[in] Find the measured IC50 of COc1cc(C)c(C2=NNC(=O)O[C@]23CC[C@@H](C[C@H](C)NC(=O)N2CCc4ccccc4C2)CC3)cn1 and report it.
[out] < 10 nM

[in] Find the measured IC50 of C[C@@H](CN1CCC2(CC1)OC(=O)NN=C2c1ccc(C(N)=O)cc1Br)NC(=O)c1cnn(C)c1 and report it.
[out] 28 nM

[in] Find the measured IC50 of C[C@@H](C[C@H]1CC[C@]2(CC1)OC(=O)NN=C2c1ccc(F)cc1)NC(=O)c1cc2cc(F)ccc2[nH]1 and report it.
[out] 11 nM

----------
study_target: full-length human PLD2 (Homo sapiens (Human), UniProt O14939)
method_notes: Evaluation of human PLD2 enzyme inhibitory activity (Amplex Red / choline oxidase fluorescence)
Assay type: biochemical
condition_summary: full-length human PLD2 enzyme; read-out: PLD2 IC50
Give measured IC50 for each item. Keep answers brief.
Enter your answer as a number in nM; do not include the unit.

[in] Find the measured IC50 of Cc1cc(N2CCOCC2)ccc1C1=NNC(=O)O[C@]12CC[C@@H](C[C@H](C)NC(=O)NC1CC1)CC2 and report it.
[out] 310

[in] Find the measured IC50 of Cc1cc(C(=O)N[C@@H](C)C[C@H]2CC[C@]3(CC2)OC(=O)NN=C3c2ccc(C#N)cc2Cl)[nH]n1 and report it.
[out] 29

----------
study_target: UniProtKB Q13393
method_notes: Evaluation of human PLD1 enzyme inhibitory activity (Amplex Red / choline oxidase fluorescence)
Assay type: biochemical
condition_summary: full-length human PLD1 enzyme; read-out: PLD1 IC50
property_label: pIC50
Just the number, please; pIC50 means minus log10 of the concentration in mol/L.

[in] Find the measured pIC50 of CNC(=O)C(=O)N[C@@H](C)C[C@H]1CC[C@]2(CC1)OC(=O)NN=C2c1ccc(C#N)c(C)c1 and report it.
[out] 7.46

[in] Find the measured pIC50 of C[C@@H](CN1CCC2(CC1)OC(=O)NN=C2c1ccc(F)cc1Br)NC(=O)C(=O)NC12CC(C1)C2 and report it.
[out] 6.08

[in] Find the measured pIC50 of C[C@@H](CN1CCC2(CC1)OC(=O)NN=C2c1ccc(C#N)cc1Br)NC(=O)c1cn(C)cn1 and report it.
[out] 7.57

[in] Find the measured pIC50 of C[C@@H](CN1CCC2(CC1)OC(=O)NN=C2c1cc(C#N)ccc1Br)NC(=O)C1CCCO1 (mixture of isomers) and report it.
[out] 6.19

----------
study_target: full-length human PLD1 (Homo sapiens (Human))
Sequence (Q13393 other isoform, or with tags, fused parts or gaps): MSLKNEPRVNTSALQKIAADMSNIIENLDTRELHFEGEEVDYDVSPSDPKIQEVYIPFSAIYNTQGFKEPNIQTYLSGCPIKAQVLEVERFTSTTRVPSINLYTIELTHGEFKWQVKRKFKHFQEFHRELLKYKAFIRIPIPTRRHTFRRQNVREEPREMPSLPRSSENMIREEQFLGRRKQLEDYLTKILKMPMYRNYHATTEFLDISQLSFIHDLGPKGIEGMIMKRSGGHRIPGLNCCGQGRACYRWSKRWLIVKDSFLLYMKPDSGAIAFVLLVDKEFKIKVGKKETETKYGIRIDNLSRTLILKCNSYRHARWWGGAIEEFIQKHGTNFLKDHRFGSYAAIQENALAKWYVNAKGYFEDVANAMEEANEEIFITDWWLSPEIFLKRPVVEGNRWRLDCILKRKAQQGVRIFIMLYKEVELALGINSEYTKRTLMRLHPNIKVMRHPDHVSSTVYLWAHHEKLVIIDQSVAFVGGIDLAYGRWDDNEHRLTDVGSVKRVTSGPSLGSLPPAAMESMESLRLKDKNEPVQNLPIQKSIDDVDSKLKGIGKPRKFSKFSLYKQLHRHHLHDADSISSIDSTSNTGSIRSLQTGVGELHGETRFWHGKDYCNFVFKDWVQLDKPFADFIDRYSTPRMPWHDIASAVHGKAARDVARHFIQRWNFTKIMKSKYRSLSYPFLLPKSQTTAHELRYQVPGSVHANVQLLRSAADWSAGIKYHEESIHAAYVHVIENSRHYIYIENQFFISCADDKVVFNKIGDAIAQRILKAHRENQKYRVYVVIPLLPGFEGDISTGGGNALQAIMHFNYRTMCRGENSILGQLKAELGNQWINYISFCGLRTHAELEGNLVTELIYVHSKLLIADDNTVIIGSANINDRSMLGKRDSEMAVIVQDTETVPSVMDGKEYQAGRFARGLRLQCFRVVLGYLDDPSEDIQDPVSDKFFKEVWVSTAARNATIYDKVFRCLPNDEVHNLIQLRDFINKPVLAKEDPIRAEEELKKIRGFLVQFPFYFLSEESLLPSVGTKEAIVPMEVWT
method_notes: Evaluation of human PLD1 enzyme inhibitory activity (Amplex Red / choline oxidase fluorescence)
Assay type: biochemical
condition_summary: full-length human PLD1 enzyme; read-out: PLD1 IC50
Experimental: A method for measuring human PLD1 enzyme inhibitory activity using an enzyme in which a FLAG-tag is added to the N-terminus of full-length human PLD1 (1-1036 amino acids) is shown below. DNA fragment in which a FLAG-tag sequence is added to the 5′-end of full-length human PLD1 was amplified by PCR method, using commercially available human PLD1 gene (Promega KK) as a template. […]
pIC50: −log10 of the molar value.
Assign class by pIC50: not lower than 7 means met; lower than 7 means not met.

[in] Is pIC50 at least 7? Consider CNC(=O)C(=O)N[C@@H](C)C[C@H]1CC[C@]2(CC1)OC(=O)NN=C2c1cc(OC(F)F)ccc1Br
[out] met

[in] Is pIC50 at least 7? Consider C[C@@H](C[C@]1(C#N)CC[C@@]2(CC1)OC(=O)NN=C2c1cc(C(F)(F)F)ccc1Br)NC(=O)c1cn(C)cn1
[out] met

[in] Is pIC50 at least 7? Consider C[C@@H](C[C@H]1CC[C@]2(CC1)OC(=O)NN=C2c1cccc2c1OCC2)NC(=O)c1cc(Cl)no1
[out] met

[in] Is pIC50 at least 7? Consider CNC(=O)C(=O)N[C@@H](C)C[C@]1(O)CC[C@]2(CC1)OC(=O)NN=C2c1ccc(F)cc1Br
[out] not met

[in] Is pIC50 at least 7? Consider C[C@@H](CN1CCC2(CC1)OC(=O)NN=C2c1cc(C#N)ccc1Br)NC(=O)c1cncn1C
[out] not met

[in] Is pIC50 at least 7? Consider CNC(=O)C(=O)N[C@@H](C)C[C@H]1CC[C@]2(CC1)OC(=O)NN=C2c1ccc(C#N)cc1C
[out] met

[in] Is pIC50 at least 7? Consider C[C@@H](C[C@H]1CC[C@]2(CC1)OC(=O)NN=C2c1ccc(C#N)cc1Br)NC(=O)c1cc(Cl)no1
[out] met

[in] Is pIC50 at least 7? Consider C[C@@H](CN1CCC2(CC1)OC(=O)NN=C2c1ccc(F)cc1)NC(=O)c1cc2cc(F)ccc2[nH]1
[out] met
